# maps each entry to its TGI
- Tested on: NCI/ADR-RES ovarian
- PROTOCOL_NOTES: NCI tumour cell line growth inhibition, 48 h
MEASURED_METRIC: TGI (µM)

MOLECULE: Cc1ccc(-c2nc(N/N=C/c3ccc(O)cc3)c3ccccc3n2)cc1
MEASURED_ON: NCI/ADR-RES ovarian
READING_QUALIFIER: >
QUANTITATIVE_RESULT: 100

MOLECULE: Cc1cc(S(=O)(=O)Nc2nc3ccccc3nc2-c2ccc(Cl)cc2)c(S)cc1Cl
MEASURED_ON: NCI/ADR-RES ovarian
READING_QUALIFIER: =
QUANTITATIVE_RESULT: 36.9

MOLECULE: CC(=O)Oc1ccc2c(c1)CC[C@@H]1C2[C@@H](O[N+](=O)[O-])C[C@@]2(C)C1CC[C@@H]2O[N+](=O)[O-] (stereo not given in full)
MEASURED_ON: NCI/ADR-RES ovarian
READING_QUALIFIER: =
QUANTITATIVE_RESULT: 33.6

MOLECULE: CCN(CC)CCCNc1cc(OC)cc2nc3cc(Cl)ccc3nc12
MEASURED_ON: NCI/ADR-RES ovarian
READING_QUALIFIER: =
QUANTITATIVE_RESULT: 8.52

MOLECULE: CC1(C)CCC(C)(C)C1C(=O)NC(O)C(=O)O (stereo not given)
MEASURED_ON: NCI/ADR-RES ovarian
READING_QUALIFIER: >
QUANTITATIVE_RESULT: 100

MOLECULE: COC(=O)c1ccc(C)cc1CC1Cc2ccc(C)cc2C1=O (stereo not given)
MEASURED_ON: NCI/ADR-RES ovarian
READING_QUALIFIER: =
QUANTITATIVE_RESULT: 18.3

MOLECULE: CC(=O)Oc1c2c(c3n(c1=O)CCCC3)C(=O)N(c1ccccc1)C2=O
MEASURED_ON: NCI/ADR-RES ovarian
READING_QUALIFIER: >
QUANTITATIVE_RESULT: 100

MOLECULE: O=S(=O)(O)c1cc(O)c(N=Nc2ccc(O)cc2O)c2ccccc12
MEASURED_ON: NCI/ADR-RES ovarian
READING_QUALIFIER: >
QUANTITATIVE_RESULT: 100

MOLECULE: CC(=O)Oc1c(-c2ccccc2)sc2ccccc12
MEASURED_ON: NCI/ADR-RES ovarian
READING_QUALIFIER: =
QUANTITATIVE_RESULT: 59.1

MOLECULE: Nc1ccc(C2=CC(c3ccc(Cl)cc3)N3C=CSC3=N2)cc1 (stereo not given)
MEASURED_ON: NCI/ADR-RES ovarian
READING_QUALIFIER: >
QUANTITATIVE_RESULT: 100

---

- Tested on: UACC-257 melanoma
- PROTOCOL_NOTES: NCI tumour cell line growth inhibition, 48 h

MOLECULE: Cc1cccc(C)c1NC(=O)C1=NC(=S)NC(c2ccccc2)C1c1nc2ccccc2s1 (stereo not drawn)
READING_QUALIFIER: >
TGI / µM: 100
//
MOLECULE: CC1C(C)N(C(=O)CCl)c2ccccc2N1C(=O)CCl (stereo not drawn)
READING_QUALIFIER: =
TGI / µM: 3.16
//
MOLECULE: COc1ccc(C2C(C#N)=C(S)N(C3OC(COC(C)=O)C(OC(C)=O)C(OC(C)=O)C3OC(C)=O)C(c3ccccc3)=C2C(C)=O)cc1 (stereo not drawn)
READING_QUALIFIER: >
TGI / µM: 100
//
MOLECULE: Cc1cc(=O)n2nc(CCl)sc2n1
READING_QUALIFIER: =
TGI / µM: 25.2
//
MOLECULE: O=C(/C=C(\S/C=C(/c1ccccc1)N1CCn2c(C(=O)c3ccccc3)c(C(=O)c3ccccc3)c(C(=O)c3ccccc3)c21)C(=O)c1ccccc1)c1ccccc1
READING_QUALIFIER: >
TGI / µM: 10
//
MOLECULE: CC1=C(C(=O)Nc2ccccc2)C(c2cccc3ccccc23)C(C(=O)Nc2ccccc2)=C(C)N1
READING_QUALIFIER: =
TGI / µM: 39.2
//
MOLECULE: COC(=O)N[C@H](C(=O)O)C(C)O[Si](C)(C)C(C)(C)C (stereo partly drawn)
READING_QUALIFIER: >
TGI / µM: 100
//
MOLECULE: CCCCCCCCCCCCCCCCCCn1cc[n+](C)c1
READING_QUALIFIER: =
TGI / µM: 3.91
//
MOLECULE: COC(=O)[C@H](Cc1cnc[nH]1)NC(=O)[C@@H](NC(=O)Nc1cc(C(F)(F)F)cc(C(F)(F)F)c1)C(C)C
READING_QUALIFIER: =
TGI / µM: 29.9
//
MOLECULE: Cc1ccccc1NC(=O)c1sc2nc(C)c(C(=O)/C=C/c3ccccc3)cc2c1N
READING_QUALIFIER: =
TGI / µM: 8.71
//
MOLECULE: Cc1c(N=Nc2ccccc2)c(C)n(C2OC(CO)C(O)C(O)C2O)c(=S)c1C#N (stereo not drawn)
READING_QUALIFIER: >
TGI / µM: 100
//
MOLECULE: Cc1nc(C)c(N2CCNCC2)c(=O)[nH]1
READING_QUALIFIER: >
TGI / µM: 100
//
MOLECULE: O=C(O)[C@H](NS(=O)(=O)c1ccc(F)cc1)c1ccccc1
READING_QUALIFIER: >
TGI / µM: 100
//
MOLECULE: O=C(Nc1cccc(O)c1)c1ccc(NC2=C(Cl)C(=O)N(Cc3ccc(Cl)cc3Cl)C2=O)cc1
READING_QUALIFIER: =
TGI / µM: 21.6
//
MOLECULE: O=C(/C=C/c1ccccc1F)c1ccc(Cl)c(Cl)c1
READING_QUALIFIER: >
TGI / µM: 100
//
MOLECULE: C=C(NC(=O)C(=C)NC(=O)c1csc(C2=NC3c4csc(n4)C4NC(=O)c5csc(n5)C(C(C)(O)C(C)O)NC(=O)C5CSC(=N5)/C(=C/C)NC(=O)C(C(C)O)NC(=O)c5csc(n5)C3(CC2)NC(=O)C(C)NC(=O)C(=C)NC(=O)C(C)NC(=O)C(C(C)CC)NC2C=Cc3c(C(C)O)cc(nc3C2O)C(=O)OC4C)n1)C(N)=O (stereo not drawn)
READING_QUALIFIER: =
TGI / µM: 4.22
//
MOLECULE: CCc1ccc(CCC(=O)Nc2ncc(Cc3ccc(Cl)cc3)s2)o1
READING_QUALIFIER: >
TGI / µM: 100
//
MOLECULE: CCOC(=O)c1nc2ccc(C(F)(F)F)cc2nc1Nc1ccc(Cl)c(Cl)c1
READING_QUALIFIER: >
TGI / µM: 100
//
MOLECULE: COc1cc2c(c(O)c1OC)CC1CCC(=O)N1C2c1cccc2ccccc12 (stereo not drawn)
READING_QUALIFIER: =
TGI / µM: 61
//
MOLECULE: N=c1c2c(=S)n(-c3ccccc3)c(=S)n(-c3ccccc3)c2nc(SCCN2CCCC2)n1-c1ccccc1
READING_QUALIFIER: =
TGI / µM: 3.06
//
MOLECULE: COc1cc(/C=C/C(=O)/C=C/c2ccc(-n3ccnc3C)cc2)ccc1O
READING_QUALIFIER: =
TGI / µM: 13.5
//
MOLECULE: COc1cc(OC)c2c3c(OC)cc(OC)c4c(=O)c(O)c(C[C@@H](C)O)c(c5c(C[C@@H](C)O)c(O)c(=O)c1c25)c43
READING_QUALIFIER: >
TGI / µM: 100
//
MOLECULE: CCN(CC)CCN1C(=O)c2c(c3c4ccccc4[nH]c3c3ccc4ccccc4c23)C1=O
READING_QUALIFIER: =
TGI / µM: 3.27
//
MOLECULE: CC1=C(/C=C/C(C)=C/C2CC(N(C)C)=CC(=O)O2)C(C)(C)CCC1 (stereo not drawn)
READING_QUALIFIER: =
TGI / µM: 24.9
//
MOLECULE: COc1cccc(CC(C)=C(c2ccc(OCCN3CCCCC3)cc2)c2ccc(OCCN3CCCCC3)cc2)c1
READING_QUALIFIER: =
TGI / µM: 4.33
//
MOLECULE: CC(=O)Nc1ccc2[nH]c(C(=O)N3CC(CCl)c4c3cc([N+](=O)[O-])c3ccccc43)cc2c1 (stereo not drawn)
READING_QUALIFIER: >
TGI / µM: 100
//
MOLECULE: O=c1[nH]cc(Cl)c(=O)[nH]1
READING_QUALIFIER: >
TGI / µM: 100
//
MOLECULE: COCc1c(-c2cc3cc(C)cc(OC)c3s2)c2c(N)ncnn2c1CN1CCNC(=O)C1
READING_QUALIFIER: =
TGI / µM: 34.6
//
MOLECULE: COC1=CC2(CC(OC)=C1OC)OC21COc2ccccc2C1=O (stereo not drawn)
READING_QUALIFIER: >
TGI / µM: 100
//
MOLECULE: O=S(=O)(NNc1ccccc1)c1ccccc1
READING_QUALIFIER: >
TGI / µM: 100
//
MOLECULE: COc1ccc2c(c1OC)CO[C@@H]2[C@H]1c2c(cc3c(c2OC)OCO3)CCN1S(=O)(=O)c1cn(C)cn1
READING_QUALIFIER: >
TGI / µM: 100
//
MOLECULE: c1ccc(C2OC3(CCC[C@H]4C[C@H]43)O[C@H]2c2ccccc2)cc1 (stereo partly drawn)
READING_QUALIFIER: =
TGI / µM: 77.7
//
MOLECULE: COc1cc(Nc2ncc(-c3ccccc3)o2)cc(OC)c1
READING_QUALIFIER: >
TGI / µM: 25
//
MOLECULE: CC1/C(=N\O)CC(c2ccccc2)N(C)C1c1ccccc1 (stereo not drawn)
READING_QUALIFIER: >
TGI / µM: 100
//
MOLECULE: Cc1cc(S(=O)(=O)Nc2nc3ccccc3nc2-c2ccc(Cl)cc2)c(S)cc1Cl
READING_QUALIFIER: =
TGI / µM: 44.2
//
MOLECULE: COC(=O)c1ccc(C)cc1CC1Cc2ccc(C)cc2C1=O (stereo not drawn)
READING_QUALIFIER: =
TGI / µM: 53.6
//
MOLECULE: CCOC(=O)C(NC(=O)c1ccccc1)(N1CCN(c2cc3c(cc2F)c(=O)c(C(=O)O)cn3CC)CC1)C(F)(F)F (stereo not drawn)
READING_QUALIFIER: =
TGI / µM: 44.7
//
MOLECULE: NC1=Nc2cc(Cl)ccc2Sc2nc3ccccc3n21
READING_QUALIFIER: >
TGI / µM: 100
